- MEASUREMENT TARGET: TAdV-3 fiber head mutant R368A (avirulent context) (Turkey adenovirus 3, UniProt A0ABF7PFF5, R368A)
- ASSAY COMMENT: biochemical
pKd: −log10 of the molar value.
OBSERVED PROPERTY: pKd

> print(dat)
                                   compound  observed.property  recorded.result
1  CC(=O)NC1C(O)CC(OC2C(O)C(CO)OC(OC3C(CO)OC(O)C(O)C3O)C2O)(C(=O)O)OC1C(O)C(O)CO (stereo not shown)                pKd             2.49

---

- MEASUREMENT TARGET: TAdV-3 fibre head (virulent) (Turkey adenovirus 3, UniProt Q9YUQ4)
- ASSAY COMMENT: Isothermal titration calorimetry (ITC), virulent fibre head
- Format: binding, turkey adenovirus 3 (TAdV-3)
- MEASUREMENT SETUP: 25°C, pH 7.2
OBSERVED PROPERTY: Kd

> print(dat)
                                   compound  recorded.result
1  CC(=O)NC1C(O)CC(OCC2OC(OC3C(CO)OC(O)C(O)C3O)C(O)C(O)C2O)(C(=O)O)OC1C(O)C(O)CO (centres unmarked)           ~28 mM
2  CC(=O)NC1C(O)CC(OC2C(O)C(CO)OC(OC3C(CO)OC(O)C(O)C3O)C2O)(C(=O)O)OC1C(O)C(O)CO (centres unmarked)           ~37 mM

---

pKd: recorded values
- MEASUREMENT TARGET: TAdV-3 fibre head (avirulent) (Turkey adenovirus 3, UniProt A0ABF7PFF5)
- ASSAY COMMENT: Isothermal titration calorimetry (ITC), avirulent fibre head
- Assay type: binding, turkey adenovirus 3 (TAdV-3)
- MEASUREMENT SETUP: 25°C, pH 7.2
pKd: −log10 of the molar value.
OBSERVED PROPERTY: pKd

> print(dat)
                                   molecule  observed.property  recorded.result
1  CC(=O)NC1C(O)CC(OC2C(O)C(CO)OC(OC3C(CO)OC(O)C(O)C3O)C2O)(C(=O)O)OC1C(O)C(O)CO (centres unmarked) [3'-sialyllactose]                pKd            ~1.62
2  CC(=O)NC1C(O)CC(OCC2OC(OC3C(CO)OC(O)C(O)C3O)C(O)C(O)C2O)(C(=O)O)OC1C(O)C(O)CO (centres unmarked) [6'-sialyllactose]                pKd            ~1.64
